targetOrSystem: Falcipain 2 (Plasmodium falciparum, UniProt Q9N6S8)
Sequence (Q9N6S8 whole entry): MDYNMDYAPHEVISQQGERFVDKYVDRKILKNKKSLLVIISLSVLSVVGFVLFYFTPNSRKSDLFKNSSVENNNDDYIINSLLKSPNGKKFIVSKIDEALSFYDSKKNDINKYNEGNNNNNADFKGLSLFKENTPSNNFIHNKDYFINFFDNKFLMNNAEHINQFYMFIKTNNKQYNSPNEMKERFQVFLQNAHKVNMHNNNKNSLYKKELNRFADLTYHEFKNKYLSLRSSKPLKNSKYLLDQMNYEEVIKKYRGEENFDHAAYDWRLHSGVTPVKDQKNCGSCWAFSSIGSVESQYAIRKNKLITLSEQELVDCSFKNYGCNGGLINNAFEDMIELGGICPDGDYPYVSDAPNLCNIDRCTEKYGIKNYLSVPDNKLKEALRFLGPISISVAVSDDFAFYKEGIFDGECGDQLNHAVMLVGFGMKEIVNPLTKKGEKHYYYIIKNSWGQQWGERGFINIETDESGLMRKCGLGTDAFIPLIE
assayDetails: Inhibition of recombinant falcipain2
pIC50: −log10 of the molar value.
Overview of reported pIC50 across a group of compounds:
experimentalEndpoint: pIC50

- smilesText: "CC(C)C[C@H](NC(=O)N1CCOCC1)C(=O)N[C@H](/C=C1\\CCCN(c2ccccc2)S1(=O)=O)Cc1ccccc1"
  readoutNumber: 4.50
- smilesText: "CC(=O)N[C@@H](Cc1ccccc1)C(=O)N[C@H](/C=C1\\CCCN(c2ccccc2)S1(=O)=O)Cc1ccccc1"
  readoutNumber: 4.58
- smilesText: "CC(C)C[C@H](NC(=O)N1CCOCC1)C(=O)N[C@H](/C=C1\\CCN(Cc2ccccc2)S1(=O)=O)Cc1ccccc1"
  readoutNumber: 4.32
- smilesText: "CC(C)C[C@H](NC(=O)N1CCOCC1)C(=O)N[C@H](/C=C1\\CCCN(Cc2ccccc2)S1(=O)=O)Cc1ccccc1"
  readoutNumber: 4.86
- smilesText: "CC(C)C[C@H](NC(=O)N1CCOCC1)C(=O)N[C@H](/C=C1/CCCN(Cc2ccccc2)S1(=O)=O)Cc1ccccc1"
  readoutNumber: 4.63
